The reported measurements were obtained from ChEMBL document CHEMBL1201862.

tested on: COLO 205; assay: NCI tumour cell line growth inhibition, 48 h
Activity calls are given as the source filed them. No stated cut-off is given here; in the data, active = GI50 up to about 1.1 µM and inactive = higher.
ASSAY_METRIC: GI50

Use the examples below as a reference point.
CC1=CCCC(C)(O)C2CC(CCC3(C)OC3CC1)C(C)C(=O)O2 (stereo not given)
> 100 µM (inactive)
CCCCC[C@H](O)[C@H](C)C=C1SCCCS1
> 100 µM (inactive)
CCCCCCCCCC(=O)Oc1cccc2onc(C)c12
> 100 µM (inactive)
O=C1OC(c2ccccc2)=N/C1=C\c1ccc(Cl)cc1
> 100 µM (inactive)

Recall the reported GI50 of N=c1oc2cc(O)ccc2cc1C(=O)NCc1ccccc1 on COLO 205 and write it down.
12.4 µM (inactive)

Give the observed GI50 of COC(=O)C1(CCCCl)CCCN1C(=O)OC(C)(C)C (stereo not given) for COLO 205.
> 100 µM (inactive)

Give GI50; test system COLO 205; compound O=S(=O)(O)C(Cc1nc2ccccc2[nH]1)S(=O)(=O)OCCC1S(=O)(=O)OCCOS1(=O)=O (stereo not given)
> 100 µM (inactive)

----------
test system: MDA-MB-435; experiment: NCI tumour cell line growth inhibition, 48 h
Active and inactive are the calls of the source. Rule as the data show it: active = GI50 up to about 1.1 µM and inactive = higher.
Can you answer with just one of these options? True (active), False (inactive)

# example entries with known answers
O=C1/C(=C\c2cccc(Oc3ccccc3)c2)S(=O)(=O)C(c2ccccc2)N1Cc1ccccc1 (stereo not drawn)
False
CSc1nc(-c2cc3c(c(SC)n2)CCC3)cc2c1CCC2
False
CC(CCc1nc2ccccc2s1)(c1ccc(O)cc1)c1ccc(O)cc1
False
O=C(NC(Cc1c[nH]c2ccccc12)C(=O)O)/C(=C/c1ccccc1)NC(=O)c1ccccc1 (stereo not drawn)
False
O=C1N[C@H]2C(=O)c3c(Cl)sc(Cl)c3[C@H]2O1
False

Assay outcome for COc1ccc2nc(-c3cccc(N(C)C)c3)cc(O)c2c1 : what was it?
True

What did this assay record as the result for CCN(CC)Cc1nc(C2CCC([N+](=O)[O-])O2)no1 (stereo not drawn) ?
False

Given CCCCCc1cccc(=O)o1 , state the outcome it received in this test.
False

Hi, sorry to bother you, what did the test record for COc1ccc(CC(C)NCC(O)c2ccc(O)c(NC=O)c2)cc1 (stereo not drawn) ?
False

Kindly provide the recorded test outcome for the following compound: O=c1[nH][nH]c(=O)n1Cc1cccc(Cn2c(=O)[nH][nH]c2=O)c1
False

----------
system: BT-549; assay: NCI tumour cell line growth inhibition, 48 h
Calls of active or inactive are those of the source. Cut-off read from the data, not from the text of the source: active = GI50 up to about 1.1 µM and inactive = higher. Where a SMILES comes first, the peptide text is derived from it. The star is where a group is joined. Boc = CC(C)(C)OC(=O)*
Overview of recorded GI50 for various compounds

Consider the worked cases shown below.
COC(=O)CNC(=O)C(Cc1ccccc1)NC(=O)C(CCSC)NC(=O)C(Cc1ccc(O)cc1)NC(=O)OC(C)(C)C (centres undefined) (Boc-YMFG-OMe; configuration not given here)
35.3 µM (inactive)
O=[N+]([O-])c1ccc(-[n+]2ccc3ccccc3c2)c([N+](=O)[O-])c1
4.83 µM (inactive)
CCN(CC)Cc1nc(C2CCC([N+](=O)[O-])O2)no1 (centres undefined)
23.3 µM (inactive)
CC(C)CC1c2[nH]c3ccccc3c2C[C@H]2C(=O)NC(CCCCNC(=O)OC(C)(C)C)C(=O)N12 (some centres undefined)
25.2 µM (inactive)

Identify measured GI50 corresponding to O=[N+]([O-])/C(C(Cl)=C(Cl)Cl)=C(\Nc1cccc2cccnc12)Sc1ccccc1
21.9 µM (inactive)

Give GI50 for the following compound: O=[N+]([O-])c1ccc2nc3ccc([N+](=O)[O-])cn3c2c1
> 100 µM (inactive)

Given the compound C=C1CC(Cn2ccc(=O)[nH]c2=O)(c2ccc(Cl)cc2)OC1=O (centres undefined) , write its reported GI50.
4.1 µM (inactive)

Give a short answer stating reported GI50 for CCOC(=O)/C(C(=O)Nc1ccc(Cl)cc1)=C(/N)N1CCCC1 .
> 100 µM (inactive)

Report GI50, nothing else, for this compound: O=C(O)CN(CCNC(=O)OCC1c2ccccc2-c2ccccc21)CCNC(=O)OCC1c2ccccc2-c2ccccc21
27.2 µM (inactive)

----------
Below, each of the compounds is paired with its reported GI50 value.
test system: HCT-15

Look over these answered cases.
CCCC12Cc3c(OC)ccc(OC)c3CC(Cc3c(OC)ccc(OC)c31)C2=O (stereo unspecified)
> 100 µM
CN(C)c1n/c(=N/c2cccc(Cl)c2)ss1
14.5 µM
CCNC(=S)Nc1c(C#N)c2n(c1C(=O)OCC)CCCCC2
> 100 µM

Report value: GI50, system: HCT-15, compound: COC(=O)C(=C/c1ccc(OC)cc1)/C(C(=O)O)=C(/C)c1ccccc1
> 100 µM

State GI50 (HCT-15) of O=C(O)c1cc2ccccc2c(/N=N/c2ccc(S(=O)(=O)Nc3nccs3)cc2)c1O .
> 100 µM

Provide GI50, system HCT-15, entry CC1C[C@]2(C[C@@H](C)C(=O)O2)OC2CC3(C)C4CCC5C(C)(C)OC(=O)CC[C@@]56C[C@@]46CC[C@]3(C)C12 (stereo partly specified)
> 100 µM

// fetch GI50 for N/C(=N\N=C=C1C(=O)Nc2ccc(F)cc21)NO ; system: HCT-15
> 100 µM

Enter measured GI50, system HCT-15, for the compound shown: C(=C\c1cc(-c2ccc3ccccc3n2)nc2ccc3ccccc3c12)/c1ccc2ccccc2n1
> 100 µM

Fill in GI50 for O=C(NC(Cc1c[nH]c2ccccc12)C(=O)O)/C(=C/c1ccccc1)NC(=O)c1ccccc1 (stereo unspecified) tested with HCT-15.
> 55.1 µM

Please respond with reported GI50 (system HCT-15) for COc1ccccc1C1=C2C(=O)N(C)C(c3ccccc3OC)=C2C(=O)N1C .
> 100 µM

Quote GI50 with test system HCT-15 for Oc1nnc(-c2ccc(F)cc2)cc1-c1ccccc1
> 100 µM

Under HCT-15, report GI50 for CC(C)=CC(=O)Oc1ccc([N+](=O)[O-])cc1
> 100 µM

Enter measured GI50, system HCT-15, for the compound shown: COC(=O)c1c(C)cccc1C1CN=NC12Cc1ccccc1C2=O (stereo unspecified)
78.3 µM

Report value only: GI50, HCT-15, COP(=O)(OC)[C@H](O)[C@H]1C[C@@H]1c1ccccc1
> 100 µM

----------
Property: GI50; scope: individual molecules
tested on: HCT-116; experiment: NCI tumour cell line growth inhibition, 48 h
Active and inactive are the calls of the source. Rule as the data show it: active = GI50 up to about 1.1 µM and inactive = higher.

O=c1cc(-c2ccccc2)[nH]c2cc(F)c(F)cc12
0.417 µM (active)
COC(=O)C1CCC(=O)N1/C(C)=N/NC(=O)Nc1ccc(Cl)c(Cl)c1 (configuration not stated)
> 100 µM (inactive)
Cc1cccc(C)c1NC(=O)C(=O)Nn1c(NN)nc2ccccc2c1=O
> 100 µM (inactive)
CC1(C)O[C@@H](CCl)C[C@@H](C#N)O1
> 100 µM (inactive)
CCCCCCSc1nc(COC(=O)NC)c(COC(=O)NC)n1C
> 100 µM (inactive)

# evaluate next
Consider the molecule CCOP(=O)(OCC)/C(C#N)=C/c1c[nH]c2ccccc12 . State its measured GI50.
> 100 µM (inactive)

----------
test system: SK-MEL-2; test: NCI tumour cell line growth inhibition, 48 h
Active and inactive are the calls of the source. Rule as the data show it: active = GI50 up to about 1.1 µM and inactive = higher.
Your response should consist of one outcome taken from 1 = active, 0 = inactive

For orientation, consider the following solved cases.
CCOC(=O)C(N)CSC(=O)NC (configuration not stated)
0
Oc1ncnc2c1nnn2CCCCCCCCCCCCn1nnc2c(O)ncnc21
0

Record request — test call for COc1ccc([C@@]23OC[C@@H]4[C@@H](OC[C@@H]42)c2cc(OC)c(OC)cc23)cc1OC
0

----------
tested on: PC-3; experiment: NCI tumour cell line growth inhibition, 48 h
The source made the active and inactive calls. Rule as the data show it: active = GI50 up to about 1.1 µM and inactive = higher.
Bench note: report the call from active, inactive

Past entries and their recorded results:
Cc1[nH]c2ccccc2c1/C=N/c1ccc(Oc2ccccc2)cc1
inactive
O=C(O)CC(Cc1ccccc1)C(=O)O (stereo not given)
inactive

Answer briefly: the call reported for Cc1nc2c(cc1OCc1ccccc1)C(=O)C1=C(C2=O)C2OC(=O)CC2OC1(C)C (stereo not given) in this assay.
active

# outcome recorded in this test, key = OC12CC3c4ccccc4NC3C3Oc4cccc5c4C31CCN(CC1CC1)C2C5 (stereo not given)
inactive

How did this test come out for CC1(C)CC(Nc2ccc(Nc3ccccc3)cc2)CC(C)(C)N1 ?
inactive

----------
test system: HT-29; test: NCI tumour cell line growth inhibition, 48 h
Activity calls are given as the source filed them. No stated cut-off is given here; in the data, active = GI50 up to about 1.1 µM and inactive = higher.
Mark one answer only. Choices: active, inactive

Name the outcome recorded for CCOP(=O)(OCC)/C(C#N)=C/c1c[nH]c2ccccc12 in the assay.
inactive

Please let me know the test result on file for CC(C)(C)C(=O)CC(=O)C(C)(C)C.CC(C)(C)C(=O)CC(=O)C(C)(C)C.[SiH4] .
active

Hi, sorry to bother you, what did the test record for COC(=O)C1=C(O)C(C(=O)OC)[C@]2(O)[C@@H](C(=O)OC)[C@H]1C[C@@H](c1ccccc1)[C@@H]2C(=O)OC (some centres undefined) ?
inactive

Field: outcome | Entry: O=C(NN=C1CCCCC1)Nc1ccccc1Cl
inactive

Give the logged outcome of this assay for the following compound: COc1ccc([C@H]2CC(=O)N3CCCC3N2)cc1 (some centres undefined)
inactive

Outcome logged for CSCCC(C(=O)O)N(C)C (centres undefined) in this assay:
inactive

// outcome(item) with item = COC(=O)/C1=C/C2CC(/C=C(/c3ccccc3)C(=O)O1)C2
inactive

Name the outcome recorded for O=C(NCCCCCCCCCCCCNC(=O)c1cccc2ccccc12)c1cccc2ccccc12 in the assay.
inactive
